molecular target: T1, His-tagged, full-length PCSK9 (human, UniProt Q8NBP7 31-692); test: TR-FRET competition; His-PCSK9, competitor EGF(A)-Fc
T1 construct: The secreted protein is autocleaved into a prodomain and a catalytic/Cys-rich chain that starts at S153; also called His-PCSK9
T1 sequence (Q8NBP7 other isoform, or with tags, fused parts or gaps limits assumed): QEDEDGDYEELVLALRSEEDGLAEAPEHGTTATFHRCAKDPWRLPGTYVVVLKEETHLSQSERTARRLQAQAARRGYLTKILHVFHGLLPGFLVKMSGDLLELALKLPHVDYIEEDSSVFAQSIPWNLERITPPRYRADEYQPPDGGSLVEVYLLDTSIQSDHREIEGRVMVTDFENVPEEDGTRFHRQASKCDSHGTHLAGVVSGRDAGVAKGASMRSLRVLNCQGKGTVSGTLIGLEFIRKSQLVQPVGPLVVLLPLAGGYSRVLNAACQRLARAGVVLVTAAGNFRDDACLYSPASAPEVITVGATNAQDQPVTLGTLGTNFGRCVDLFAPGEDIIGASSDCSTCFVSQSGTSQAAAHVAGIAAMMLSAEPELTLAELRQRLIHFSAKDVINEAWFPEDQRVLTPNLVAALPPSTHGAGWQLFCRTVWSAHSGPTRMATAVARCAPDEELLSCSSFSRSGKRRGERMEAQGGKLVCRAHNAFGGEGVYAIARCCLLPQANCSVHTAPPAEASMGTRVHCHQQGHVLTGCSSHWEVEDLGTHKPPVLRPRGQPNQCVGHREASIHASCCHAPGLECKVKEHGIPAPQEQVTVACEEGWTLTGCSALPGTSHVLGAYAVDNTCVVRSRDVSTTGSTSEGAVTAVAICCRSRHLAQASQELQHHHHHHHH
Square brackets hold non-standard residues; d marks the D form. hArg = N=C(N)NCCCC[C@H](N)C(=O)O
Property Name: IC50 (nM)
Give the value, in units of nM, as a plain number.

## Input Param item = Ac-SFAFPGWNLK[hArg]IGLLR-NH2 (SMILES CC[C@H](C)[C@H](NC(=O)[C@H](CCCCNC(=N)N)NC(=O)[C@H](CCCCN)NC(=O)[C@H](CC(C)C)NC(=O)[C@H](CC(N)=O)NC(=O)[C@H](Cc1c[nH]c2ccccc12)NC(=O)CNC(=O)[C@@H]1CCCN1C(=O)[C@H](Cc1ccccc1)NC(=O)[C@H](C)NC(=O)[C@H](Cc1ccccc1)NC(=O)[C@H](CO)NC(C)=O)C(=O)NCC(=O)N[C@@H](CC(C)C)C(=O)N[C@@H](CC(C)C)C(=O)N[C@@H](CCCNC(=N)N)C(N)=O) [Compound 232] ; retrieve measured IC50.
## Output 930
